Origin of values: patent US20220096654A1

Target: T1, human CD45 (human, UniProt P08575 26-1306)
T1 sequence: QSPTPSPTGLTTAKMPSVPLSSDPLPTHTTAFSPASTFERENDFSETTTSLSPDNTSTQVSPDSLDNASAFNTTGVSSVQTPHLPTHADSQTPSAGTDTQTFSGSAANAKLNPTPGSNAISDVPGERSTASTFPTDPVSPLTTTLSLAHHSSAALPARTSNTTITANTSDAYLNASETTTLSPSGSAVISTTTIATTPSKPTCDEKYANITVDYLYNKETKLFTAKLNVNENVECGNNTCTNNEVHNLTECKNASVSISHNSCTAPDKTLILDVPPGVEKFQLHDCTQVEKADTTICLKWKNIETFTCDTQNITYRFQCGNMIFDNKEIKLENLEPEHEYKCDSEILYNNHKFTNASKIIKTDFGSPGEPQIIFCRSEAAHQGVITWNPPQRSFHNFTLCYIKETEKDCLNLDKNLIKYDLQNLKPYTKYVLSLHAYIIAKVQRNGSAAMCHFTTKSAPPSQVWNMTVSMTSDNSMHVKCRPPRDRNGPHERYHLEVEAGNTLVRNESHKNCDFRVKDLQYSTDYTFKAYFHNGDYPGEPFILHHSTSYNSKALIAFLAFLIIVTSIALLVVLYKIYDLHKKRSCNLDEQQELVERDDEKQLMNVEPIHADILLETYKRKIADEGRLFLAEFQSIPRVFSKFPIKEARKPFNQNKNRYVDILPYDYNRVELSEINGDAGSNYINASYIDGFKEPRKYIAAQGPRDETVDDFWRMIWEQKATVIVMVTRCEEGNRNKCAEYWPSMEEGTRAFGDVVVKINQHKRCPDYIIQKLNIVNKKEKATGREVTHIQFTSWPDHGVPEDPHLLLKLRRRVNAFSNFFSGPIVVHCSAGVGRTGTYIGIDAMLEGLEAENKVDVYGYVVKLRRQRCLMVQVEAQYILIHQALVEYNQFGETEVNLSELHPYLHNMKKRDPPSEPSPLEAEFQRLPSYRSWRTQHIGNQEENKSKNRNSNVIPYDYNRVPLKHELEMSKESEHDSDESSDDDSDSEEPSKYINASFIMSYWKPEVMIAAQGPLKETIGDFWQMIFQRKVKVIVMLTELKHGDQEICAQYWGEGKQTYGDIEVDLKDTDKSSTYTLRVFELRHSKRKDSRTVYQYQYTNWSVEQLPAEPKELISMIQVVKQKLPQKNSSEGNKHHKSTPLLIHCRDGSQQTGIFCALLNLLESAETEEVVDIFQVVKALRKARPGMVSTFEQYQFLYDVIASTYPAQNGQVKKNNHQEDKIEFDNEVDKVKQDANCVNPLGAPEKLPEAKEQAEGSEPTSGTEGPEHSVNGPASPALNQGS
Assay: cell-based or functional assay
measurementType: EC50, viability assay, OCIM1 (CD45+), 72 h (pM)
Dear colleague, please return just the value in pM, with no unit written.

These solved cases illustrate the format of a correct answer.
YTH24.5-rat IgG2b-PBD (drug-linker B1) (antibody, V domains shown, PBD dimer drug-linker B1; light chains unconjugated or attached to a single molecule of B1; sites not given; PBD dimer drug-linker B1 conjugated after TCEP reduction; heavy chains attached to up to five molecules of B1; sites not given; DAR 1.94 (preparation) / 2.00) VH: QVNLLQSGAALVKPGASVKLSCKASSYTFTDYYIHWVKQSHGKTLEWIGYINPKSGFTNYNEKFRRKATLTVDKSTNTAYMDISRLTSEDSATYYCTRRTGVIPMDAWGQGASVTVSS VL: DVVMTQTPVSLSVSLGGQVSISCRSSQSFVSSDGNTYLNWYLQKPGQSPQLLIYKVSNRLSGVPDRFSGSGSGTDFTLKISRVEHDDLGVYYCGQASKIPLTFGSGTKLEIKR :: 1.38
YTH54.12-rat IgG2b-PBD (drug-linker B1) (antibody, V domains shown, PBD dimer drug-linker B1; light chains unconjugated or attached to a single molecule of B1; sites not given; PBD dimer drug-linker B1 conjugated after TCEP reduction; heavy chains attached to up to five molecules of B1; sites not given; DAR 1.90 (preparation) / 2.00) VH: EVQLVESGGGLVQPGGSMKLSCAASGFTFSDYYMAWVRQAPKKGLEWVASMSFAGSSTYYGDSVKGRFTISRDNAKTTLYLQMNSLRSEDTATYYCARMYTTDYYLYWYFDFWGPGTMVTVSS VL: DVQMTQSPSYLAASPGESVSISCKASKSISNYLAWYQQKPGEANKILIYSGSTLQSGTPSRFSGSGSGTDFSLTIRNLEPEDFAVYYCQQYDEKPLTFGSGTKLEIKR :: 1.89

Tell me the measured EC50, viability assay, OCIM1 (CD45+), 72 h of YTH24.5-hIgG1-AAA-PBD (antibody, DAR 2.08, V domains shown) VH: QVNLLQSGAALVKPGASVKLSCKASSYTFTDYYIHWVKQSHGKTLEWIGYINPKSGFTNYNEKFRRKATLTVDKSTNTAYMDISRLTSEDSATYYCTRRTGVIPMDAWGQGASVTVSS VL: DVVMTQTPVSLSVSLGGQVSISCRSSQSFVSSDGNTYLNWYLQKPGQSPQLLIYKVSNRLSGVPDRFSGSGSGTDFTLKISRVEHDDLGVYYCGQASKIPLTFGSGTKLEIK , please.
6.8

Using the record for YTH54.12-hIgG1-AAA-PBD (antibody, DAR 2.10, V domains shown) VH: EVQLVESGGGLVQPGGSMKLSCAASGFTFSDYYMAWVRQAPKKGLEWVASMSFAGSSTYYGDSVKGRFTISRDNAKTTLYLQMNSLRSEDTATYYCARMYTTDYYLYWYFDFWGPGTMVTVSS VL: DVQMTQSPSYLAASPGESVSISCKASKSISNYLAWYQQKPGEANKILIYSGSTLQSGTPSRFSGSGSGTDFSLTIRNLEPEDFAVYYCQQYDEKPLTFGSGTKLEIK , report its EC50, viability assay, OCIM1 (CD45+), 72 h.
9.7
